- ASSAY_COMMENT: In vivo concentration in rat liver exposure 8 hour after oral administration 50 mg/kg
- Assay type: ADME, organism-based
- Design: dose 50 mg/kg, route oral
- CONDITION_NOTES: read-out: C
PARAMETER_MEASURED: concentration at 8 h (µM)
API: value field is a number in µM; no unit string.

Sample CCC[C@H](NC(=O)[C@@H]1[C@H]2CCC[C@H]2CN1C(=O)[C@@H](NC(=O)[C@@H](NC(=O)c1cnccn1)C(C)C)C(C)(C)C)C(=O)C(=O)NC(C)CC (stereo partly drawn) — what was its concentration at 8 h?
8.68

Continuing:
Sample "CCC[C@H](NC(=O)[C@@H]1[C@H]2CCC[C@H]2CN1C(=O)[C@@H](NC(=O)[C@@H](NC(=O)c1cnccn1)C(C)C)C(C)(C)C)C(=O)C(=O)NC1CC1" — what was its concentration at 8 h?
3.67

Sample "CC(C)[C@H](NC(=O)c1cnccn1)C(=O)N[C@H](C(=O)N1C[C@@H]2CCC[C@@H]2[C@H]1C(=O)N[C@@H](CC(F)F)C(=O)C(=O)NC1CC1)C(C)(C)C" — what was its concentration at 8 h?
0.67

====

Item-by-item account of Caverage
- Test system: Rattus norvegicus
- ASSAY_COMMENT: In vivo concentration in rat liver exposure 0-8 hour after oral administration 50 mg/kg
- Assay type: ADME, organism-based
- Design: dose 50 mg/kg, route oral
API: value field is a number in µM; no unit string.

// fetch Rattus norvegicus Caverage for "CCC[C@H](NC(=O)[C@@H]1[C@H]2CCC[C@H]2CN1C(=O)[C@@H](NC(=O)[C@@H](NC(=O)c1cnccn1)C(C)C)C(C)(C)C)C(=O)C(=O)NC1CC1"
16

// fetch Rattus norvegicus Caverage for "CC(C)[C@H](NC(=O)c1cnccn1)C(=O)N[C@H](C(=O)N1C[C@@H]2CCC[C@@H]2[C@H]1C(=O)N[C@@H](CC(F)F)C(=O)C(=O)NC1CC1)C(C)(C)C"
3.64

// fetch Rattus norvegicus Caverage for CCCC(NC(=O)[C@@H]1[C@H]2CCC[C@H]2CN1C(=O)[C@@H](NC(=O)[C@@H](NC(=O)c1cnccn1)C(C)C)C(C)C)C(=O)C(=O)NC1CC1 (stereo not given in full)
6.29

// below: Caverage requested for another compound
// fetch Rattus norvegicus Caverage for CCC[C@H](NC(=O)[C@@H]1[C@H]2CCC[C@H]2CN1C(=O)[C@@H](NC(=O)[C@@H](NC(=O)c1cnccn1)C(C)C)C(C)(C)C)C(=O)C(=O)NC(C)CC (stereo not given in full)
14

====

- ASSAY_COMMENT: Ratio of cytotoxicity (CC50) to that of replicon (IC50) was determined
PARAMETER_MEASURED: Ratio

Solved entries:
Sample CC(C)[C@H](NC(=O)c1cnccn1)C(=O)N[C@H](C(=O)N1C[C@@H]2CCC[C@@H]2[C@H]1C(=O)NC(CC(F)F)C(=O)C(=O)NC1CC1)C(C)C (stereo not given in full) — what was its Ratio?
> 26

Sample CCC(C)NC(=O)C(=O)[C@H](CC(F)F)NC(=O)[C@@H]1[C@H]2CCC[C@H]2CN1C(=O)[C@@H](NC(=O)[C@@H](NC(=O)c1cnccn1)C(C)C)C(C)(C)C (stereo not given in full) — what was its Ratio?
> 38

Sample "CC(C)[C@H](NC(=O)c1cnccn1)C(=O)N[C@H](C(=O)N1C[C@@H]2CCC[C@@H]2[C@H]1C(=O)N[C@@H](CC(F)F)C(=O)C(=O)N[C@@H](C)c1ccccc1)C(C)C" — what was its Ratio?
> 110

Sample "CC(C)[C@H](NC(=O)c1cnccn1)C(=O)N[C@H](C(=O)N1C[C@@H]2CCC[C@@H]2[C@H]1C(=O)N[C@@H](CC(F)F)C(=O)C(=O)N[C@@H](C)c1ccccc1)C(C)(C)C" — what was its Ratio?
> 159

// below: Ratio requested for another compound
Sample CCC[C@H](NC(=O)[C@@H]1[C@H]2CCC[C@H]2CN1C(=O)[C@@H](NC(=O)[C@@H](NC(=O)c1cnccn1)C(C)C)C(C)(C)C)C(=O)C(=O)NC(C)CC (stereo not given in full) — what was its Ratio?
> 29
